TARGET SYSTEM: Polymorphonuclear leukocyte elastase from human sputum (EPC Co.; Funakoshi Yakuhin) (human, UniProt P08246)
METHOD DESCRIPTION: enzyme inhibition with MeO-Suc-Ala-Ala-Pro-Val-pNA, Ki by the Henderson method
MEASURED ATTRIBUTE: Ki (nM)
Return type: number; implicit unit nM.

RKPGKCPVTYGQCLMLNPPNFCEMDGQCKRDLKCCMGMCGKSCVSPVKA (other) [(Arg^59 -Ala^107) SLPI] : 0.08

// next item, Ki requested
Record summary for Human secretory leukoprotease inhibitor (SLPI) (other) SGKSFKAGVCPPKKSAQCLRYKKPECQSDWQCPGKKRCCPDTCGIKCLDPVDTPNPTRRKPGKCPVTYGQCLMLNPPNFCEMDGQCKRDLKCCMGMCGKSCVSPVKA : reported Ki = 0.08
